Quick reference: melting point of the listed items.

If you can, please state the reported melting point value of CC(C)n1nc(-c2c(NCCN(C)C)nc(N)nc2-c2ccccc2)ccc1=O [Example 117] . 164 to 165.5 °C

// next record CC(C)n1nc(-c2cnc(NC(=O)OCC(Cl)(Cl)Cl)nc2-c2ccccc2)ccc1=O [Example 177] 158 to 162 °C

// next record CC(C)n1nc(-c2c(-c3ccccc3)nc(N)nc2N2CCCC2)ccc1=O [Example 125] > 300 °C

Next:
If you can, please state the reported melting point value of CN(C)c1ncc(-c2ccc(=O)n(C)n2)c(-c2ccc(Cl)cc2)n1 [Example 246] . 166 °C
